Source: ChEMBL document CHEMBL1201862

Overview of recorded GI50 for various compounds
Tested on: Malme-3M
EXPERIMENTAL_DETAILS: NCI tumour cell line growth inhibition, 48 h
The source made the active and inactive calls. Cut-off read from the data, not from the text of the source: active = GI50 up to about 1.1 µM and inactive = higher.
RESULT_TYPE: GI50

1. Cc1ccc(-n2cnc(C(=N)C#N)c2N)cc1 | > 100 µM (inactive)
2. COC(=O)C1OC(O[C@H]2CC[C@]3(C)[C@H]4CC=C5[C@@H]6CC(C)(C)CC[C@]6(C(=O)OC)[C@H](O)C[C@@]5(C)[C@]4(C)CC[C@H]3C2(C)C)C(O)C(O)C1O (some centres undefined) | 12.8 µM (inactive)
3. CN1CN(c2ccccc2)C2(CCN(CCC3COc4ccccc4O3)CC2)C1=O (centres undefined) | 19.5 µM (inactive)
4. COc1ccc(/C=C2\CCC(CN(C)C)C2=O)cc1 (centres undefined) | 4.92 µM (inactive)
5. COC1=C(OC)C(=O)c2cc(C)c(=O)c(C)cc2C1=O | 17.1 µM (inactive)
6. CN(C)CCOc1ccc2[nH]c(C(=O)N3CC(CCl)c4c3cc([N+](=O)[O-])c3ccccc43)cc2c1 (centres undefined) | 1.94 µM (inactive)
7. CN(C)C1C(=O)C(C(N)=O)=C(O)C2(O)C(O)=C3C(=O)c4c(O)cccc4C(C)(O)C3CC12 (centres undefined) | 67.3 µM (inactive)
8. COc1ccc(Cc2c(N)[nH]c(=O)n(C)c2=O)cc1 | > 100 µM (inactive)
9. CC1(C)CN=C(Nc2cccc(C(F)(F)F)c2)S1 | > 100 µM (inactive)

###

Overview of recorded GI50 for various molecules
Test system: KM12
EXPERIMENTAL_DETAILS: NCI tumour cell line growth inhibition, 48 h
Calls of active or inactive are those of the source. Cut-off read from the data, not from the text of the source: active = GI50 up to about 1.1 µM and inactive = higher.
RESULT_TYPE: GI50

1. O=S1(=O)NN=C(NCc2ccc(Cl)cc2)c2ccccc21 | > 100 µM (inactive)
2. CCOC(=O)[C@@]1(C)CC(O)C(=O)N1C (stereo not given in full) | > 100 µM (inactive)
3. CCN(CC)c1c(C(=O)/C=C/c2ccc(F)cc2)c(-c2ccccc2)nn(C)c1=O | 4.85 µM (inactive)
4. CN1CSC(=S)N(c2c3ccccc3nc3ccc(Br)cc23)C1 | 7.11 µM (inactive)
5. CCCCCCCCCCCCCCCCCCNc1ccn(C2OC(COP(=O)(O)OCC3OC(n4ccc(NC(=O)CCCCCCCCCCCCCCCCC)nc4=O)C(OC(C)=O)C3OC(C)=O)C(OC(C)=O)C2OC(C)=O)c(=O)n1 (stereo not given) | > 100 µM (inactive)
6. C[N+](C)(C)c1ncnc2c1ncn2C1CCCCO1 (stereo not given) | > 100 µM (inactive)
7. Nc1nc(OCC2CCCCC2)c2nc[nH]c2n1 | 15.7 µM (inactive)
8. Cc1cnc2c(c1)C(=O)N(c1ccc(Oc3ccccc3)cc1)S2(=O)=O | > 100 µM (inactive)
9. O=C1OC(=O)C2C1C1C(c3ccccc3)=C(c3ccccc3)C2(O)C2C(=O)OC(=O)C12 (stereo not given) | > 100 µM (inactive)
10. O=NN(CCCl)C(=O)N[C@H]1CC[C@@H](CC(=O)O)CC1 | > 100 µM (inactive)
11. CC(C)COC(=O)OC(=O)c1ccc(N(C)Cc2cnc3nc(N)nc(N)c3n2)cc1 | 26.5 µM (inactive)
12. COC(=O)c1cc2c(cc1O)[C@@H](NC(C)=O)CCc1cc(OC)c(OC)c(OC)c1-2 | 0.0283 µM (active)
13. CSc1ccc2c(cc1=O)[C@@H](NC(=O)c1ccc(Cl)cc1)CCc1cc(O)c(O)c(O)c1-2 | 40.4 µM (inactive)
14. O=C1N/C(=N\C2CCCCC2)C2(CCN(CCCC3(c4ccc(F)cc4)OCCO3)CC2)N1c1ccccc1 | 18 µM (inactive)
15. S=C1SCN(Cc2ccco2)CN1c1ccc(Br)cc1 | 11.1 µM (inactive)
16. Cc1[nH]nc(C(=O)N/N=C/c2cccs2)c1/N=N\N(C)C | 24.1 µM (inactive)
17. O=c1[nH]nc(Cc2ccccc2)n1Nc1ccccc1 | > 100 µM (inactive)
18. CCc1nn(S(=O)(=O)c2ccc(C)cc2)c2c1CS(=O)(=O)CC2 | > 100 µM (inactive)
19. COC(=O)C1=Cc2cn(S(=O)(=O)c3ccc(C)cc3)c3cccc(c23)C(C=C(C)C)N1C(C)=O (stereo not given) | > 100 µM (inactive)
20. COC(=O)c1nc(N)nc(O)c1CCCCCc1c(O)nc(N)nc1C(=O)OC | > 50 µM (inactive)
